Origin of measurements: PubChem BioAssay AID1159580

Test: chemical genetic growth profiling, strain panel (AID 1159580);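 also: tested at 20 µM; growth read once vehicle control cultures reached saturation at 30 °C; 1 = growth at the plate median or of vehicle wells; lower values mean less growth of the strain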
Conditions: S. cerevisiae deletion strains, growth OD, locus YNL307C, strain MCK1, active compounds read low
The whole screen tested about 5,500 compounds, of which about 2,000 (36%) were called active. Inconclusive results (about 18%) are left out. Some of the results follow.
measured_property: normalized growth
Please give the numeric answer without any surrounding text.

IN: Which normalized growth is listed for O=C(O)c1cc(=O)c2ccc(Cl)cc2[nH]1 ?
OUT: 0.988

IN: Could you do the same for CC(=O)O[C@@](C)(CCC=C(C)C)C1CC=C(C)CC1 (some centres not stated) , please?
OUT: 0.996

IN: Could you do the same for CNC1(C)C2CCC(C2)C1(C)C (configuration not stated) , please?
OUT: 0.999

IN: Could you do the same for CC(C(=O)O)c1ccc2c(c1)[nH]c1ccc(Cl)cc12 (configuration not stated) , please?
OUT: 0.963

IN: Could you do the same for NC[C@@H]1O[C@H](O[C@@H]2[C@@H](CO)OC(O[C@@H]3[C@@H](O)[C@H](N)C[C@H](N)[C@H]3OC3O[C@H](CN)[C@@H](O)[C@H](O)[C@H]3N)[C@@H]2O)[C@H](N)[C@@H](O)[C@@H]1O (some centres not stated) , please?
OUT: 1.02

IN: Could you do the same for C/C=C(/C(=C/C)c1ccc(O)cc1)c1ccc(O)cc1 , please?
OUT: 0.707

IN: Could you do the same for Nc1nc2[nH]c(=O)c(=O)[nH]c2c(=O)[nH]1 , please?
OUT: 1

----------
Assay: chemical genetic growth profiling, strain panel (AID 1159580);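 also: tested at 20 µM; growth read once vehicle control cultures reached saturation at 30 °C; 1 = growth at the plate median or of vehicle wells; lower values mean less growth of the strain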
Details: S. cerevisiae deletion strains, growth OD, locus YMR263W, strain SAP30, active compounds read low
Screen size: about 5,500 compounds; about 2,000 (36%) were called active. Inconclusive results (about 18%) are left out. The list shows a part of the results.
measured_property: normalized growth
Please give the numeric answer without any surrounding text.

IN: Which normalized growth is listed for COC(=O)C1[C@H]2C[C@H]3c4[nH]c5ccccc5c4CCN3C[C@@H]2CC[C@@H]1O (stereo partly specified) ?
OUT: 1.03

IN: Could you do the same for COc1ccc([C@@H]2CC(=O)c3c(O)cc(O)cc3O2)cc1O , please?
OUT: 1.03

IN: Could you do the same for COc1ccc(C2CC(=O)c3ccc(OC)cc3O2)cc1 (stereo unspecified) , please?
OUT: 0.869

IN: Could you do the same for C[C@@H]1O[C@@H](O[C@H]2[C@@H](Oc3cc(O)c4c(c3)O[C@H](c3ccc(O)cc3)CC4=O)O[C@H](CO)[C@@H](O)[C@@H]2O)[C@H](O)[C@H](O)[C@H]1O , please?
OUT: 0.987

IN: Could you do the same for O=C1CC(c2ccc(O)cc2)Oc2ccccc21 (stereo unspecified) , please?
OUT: 0.823

IN: Could you do the same for N#Cc1cnn(-c2ccccc2)c1-n1cccc1 , please?
OUT: 0.964

IN: Could you do the same for CCOC(=O)COc1ccc2c(c1)OC(C)(C)CC2=O , please?
OUT: 1.01

IN: Could you do the same for CCC1(c2ccccc2)C(=O)NCNC1=O , please?
OUT: 0.982

IN: Could you do the same for O=C(O)[C@H]1NCCC[C@H]1C(=O)O , please?
OUT: 0.99

IN: Could you do the same for CN=C(NC#N)NCCSCc1nc[nH]c1C , please?
OUT: 0.998

IN: Could you do the same for Cn1cc(C2=C(c3ccc(Cl)cc3Cl)C(=O)NC2=O)c2ccccc21 , please?
OUT: 1.01
